The sequences listed here are annotated with their Tm.
- assay info: melting temperature; fluorescence melt of hairpins on a sequencing array, two-state fit, raised by 9.35 °C to match UV melts
- condition summary: sodium 0.088 M

[
  {
    "polymer sequence": "GCAAGGCGAAAGCCCAGC ((..(((....)))..))",
    "Tm": "45.9 °C"
  },
  {
    "polymer sequence": "GTCTGTGGAAACACAGGC (.(((((....))))).)",
    "Tm": "53.7 °C"
  },
  {
    "polymer sequence": "GTAAGTCCGAAAGGATAC (((..(((....))))))",
    "Tm": "25.9 °C"
  },
  {
    "polymer sequence": "GTTGGGCCGAAAGGCAAC (((..(((....))))))",
    "Tm": "45.4 °C"
  },
  {
    "polymer sequence": "GGACGGGGAAACCCGCCC ((.((((....)))).))",
    "Tm": "58.7 °C"
  },
  {
    "polymer sequence": "GCAGTGCGAAAGCATGC (((.(((....))))))",
    "Tm": "58.7 °C"
  },
  {
    "polymer sequence": "GCCCTCCGAAAGGACGGC (((.(((....))).)))",
    "Tm": "50.4 °C"
  },
  {
    "polymer sequence": "GAAAGCGGAAACACTTTC (((((.(....).)))))",
    "Tm": "36.2 °C"
  },
  {
    "polymer sequence": "GGGACCCGAAAGGGCCC (((.(((....))))))",
    "Tm": "66 °C"
  },
  {
    "polymer sequence": "GATCGTATCCACGATC ((((((....))))))",
    "Tm": "56.9 °C"
  },
  {
    "polymer sequence": "GGGTCTGGAAACAGACTC (.(((((....))))).)",
    "Tm": "52 °C"
  },
  {
    "polymer sequence": "GGCAGCGAAAGCTGGGCC ((((((....)))..)))",
    "Tm": "52 °C"
  },
  {
    "polymer sequence": "GGCTTCGGAAACGGAGCC ((((.((....)).))))",
    "Tm": "59.1 °C"
  },
  {
    "polymer sequence": "GGTAGCGAAAGCTGTACC ((((((....)))..)))",
    "Tm": "40.7 °C"
  },
  {
    "polymer sequence": "GGCTCATCGAAAGATGCC (((..(((....))))))",
    "Tm": "37.5 °C"
  },
  {
    "polymer sequence": "GGCCATGGAAACGTGGTC (.(((.(....).))).)",
    "Tm": "45.2 °C"
  },
  {
    "polymer sequence": "GAGCTGGGAAACCAGCCC (.(((((....))))).)",
    "Tm": "46.9 °C"
  },
  {
    "polymer sequence": "GAGATTGGAAACAACCTC (((.(((....))).)))",
    "Tm": "32 °C"
  },
  {
    "polymer sequence": "GTACCTGGAAACAGGTAC (((((((....)))))))",
    "Tm": "61.9 °C"
  },
  {
    "polymer sequence": "GGCGTAGAAATACGCC ((((((....))))))",
    "Tm": "66.1 °C"
  },
  {
    "polymer sequence": "GAACTCCCGAAAGGGTTC (((..(((....))))))",
    "Tm": "31.7 °C"
  },
  {
    "polymer sequence": "GTGCTCGGAAACGAGTAC ((.((((....)))).))",
    "Tm": "55.4 °C"
  },
  {
    "polymer sequence": "GCGCTAGGAAACCAGCAC (.(((.(....).))).)",
    "Tm": "26.8 °C"
  },
  {
    "polymer sequence": "GTCAACGAAAGTTTGAC ((((((....))).)))",
    "Tm": "46.9 °C"
  },
  {
    "polymer sequence": "GGAACGGGAAACCATTCC ((((.((....)).))))",
    "Tm": "35.9 °C"
  },
  {
    "polymer sequence": "GATCTGACTGCAGATC ((((((....))))))",
    "Tm": "47 °C"
  },
  {
    "polymer sequence": "GATCCTAAGCAGGATC ((((((....))))))",
    "Tm": "52.9 °C"
  },
  {
    "polymer sequence": "GGGAGCGAAAGCTGGCCC ((((((....)))..)))",
    "Tm": "39.8 °C"
  },
  {
    "polymer sequence": "GGTGCTCGAAAGAGAACC (((.(((....))).)))",
    "Tm": "54.1 °C"
  },
  {
    "polymer sequence": "GGATTGCGAAAGCATTCC (((.(((....))).)))",
    "Tm": "52.8 °C"
  },
  {
    "polymer sequence": "GTTGCCGGAAACGGCAGC (.(((((....))))).)",
    "Tm": "57.5 °C"
  },
  {
    "polymer sequence": "GCCCCCGGAAACAGGGGC (((((.(....).)))))",
    "Tm": "56.7 °C"
  },
  {
    "polymer sequence": "GATCTGTTTACAGATC ((((((....))))))",
    "Tm": "58.6 °C"
  },
  {
    "polymer sequence": "GATCCCCAGCGGGATC ((((((....))))))",
    "Tm": "59.8 °C"
  },
  {
    "polymer sequence": "GTGTAGGGAAACCTGCAC (((.(((....))).)))",
    "Tm": "50.3 °C"
  },
  {
    "polymer sequence": "GATCCTGACAGGATC ((((((...))))))",
    "Tm": "55.7 °C"
  },
  {
    "polymer sequence": "GGTAGAGGAAACTCTATC (.(((((....))))).)",
    "Tm": "37.1 °C"
  },
  {
    "polymer sequence": "GCTCAACGAAAGTTCAGC (((.(((....))).)))",
    "Tm": "37.6 °C"
  },
  {
    "polymer sequence": "GCTCTATCGAAAGATAGC (((..(((....))))))",
    "Tm": "30.2 °C"
  },
  {
    "polymer sequence": "GATCGTGACGACGATC ((((((....))))))",
    "Tm": "56.8 °C"
  },
  {
    "polymer sequence": "GCCTATCGAAAGATTGGC (((.(((....))).)))",
    "Tm": "53.4 °C"
  },
  {
    "polymer sequence": "GCTGTCGAAAGACGCAGC ((((((....)))..)))",
    "Tm": "46.6 °C"
  },
  {
    "polymer sequence": "GTTGCACCGAAAGGTAAC (((..(((....))))))",
    "Tm": "30.4 °C"
  },
  {
    "polymer sequence": "GATCGGTAGCCGATC ((((((...))))))",
    "Tm": "55.4 °C"
  },
  {
    "polymer sequence": "GATCCAGCCATGGATC ((((((....))))))",
    "Tm": "58.7 °C"
  },
  {
    "polymer sequence": "GCCTACGAAAGTAACGGC ((((((....)))..)))",
    "Tm": "44 °C"
  },
  {
    "polymer sequence": "GATCGTTGCCACGATC ((((((....))))))",
    "Tm": "54.5 °C"
  },
  {
    "polymer sequence": "GGAATACCGAAAGGTTCC (((..(((....))))))",
    "Tm": "36.4 °C"
  }
]
